The measurements presented in this section are drawn from ChEMBL document CHEMBL2046324.

Biological target: Protein deacetylase HDAC6 (Homo sapiens, UniProt Q9UBN7)
Sequence (Q9UBN7 whole entry): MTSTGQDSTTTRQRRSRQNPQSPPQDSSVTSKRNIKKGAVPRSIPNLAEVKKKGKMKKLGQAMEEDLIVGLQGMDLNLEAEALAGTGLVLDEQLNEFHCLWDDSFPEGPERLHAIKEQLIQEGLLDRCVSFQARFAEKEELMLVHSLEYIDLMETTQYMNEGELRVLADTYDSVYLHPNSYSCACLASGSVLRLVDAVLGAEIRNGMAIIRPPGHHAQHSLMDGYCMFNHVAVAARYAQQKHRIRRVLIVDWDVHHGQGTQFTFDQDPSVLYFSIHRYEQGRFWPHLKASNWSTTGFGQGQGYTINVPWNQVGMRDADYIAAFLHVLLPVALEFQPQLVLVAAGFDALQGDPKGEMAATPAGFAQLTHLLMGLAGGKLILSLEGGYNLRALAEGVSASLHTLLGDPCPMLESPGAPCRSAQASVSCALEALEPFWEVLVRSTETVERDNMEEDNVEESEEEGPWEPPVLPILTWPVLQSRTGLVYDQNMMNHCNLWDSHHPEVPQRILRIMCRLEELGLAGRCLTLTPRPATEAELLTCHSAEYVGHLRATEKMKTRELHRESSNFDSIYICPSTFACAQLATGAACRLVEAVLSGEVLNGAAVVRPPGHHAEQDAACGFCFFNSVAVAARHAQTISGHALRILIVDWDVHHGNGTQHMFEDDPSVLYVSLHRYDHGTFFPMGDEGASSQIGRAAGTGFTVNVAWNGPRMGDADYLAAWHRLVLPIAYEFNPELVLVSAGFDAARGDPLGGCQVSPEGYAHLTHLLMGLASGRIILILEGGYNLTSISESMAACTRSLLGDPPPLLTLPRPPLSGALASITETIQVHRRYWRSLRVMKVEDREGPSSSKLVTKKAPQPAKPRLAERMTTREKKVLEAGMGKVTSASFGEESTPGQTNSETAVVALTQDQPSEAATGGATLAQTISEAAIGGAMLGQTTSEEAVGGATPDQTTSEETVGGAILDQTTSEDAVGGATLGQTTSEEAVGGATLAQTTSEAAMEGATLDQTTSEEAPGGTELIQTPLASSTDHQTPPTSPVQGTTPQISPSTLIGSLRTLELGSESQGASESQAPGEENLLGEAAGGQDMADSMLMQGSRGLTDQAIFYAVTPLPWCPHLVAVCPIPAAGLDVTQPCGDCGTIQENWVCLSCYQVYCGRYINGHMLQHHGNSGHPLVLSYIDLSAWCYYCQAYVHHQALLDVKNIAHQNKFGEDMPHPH
Assay: Inhibition of human recombinant HDAC6 after 30 mins by fluorometric assay
Measure Name: pIC50
In textbook form, pIC50 equals minus log to base ten of the concentration in mol/L.

Observe how each entry below is paired with its result.
| Structure String | pIC50 |
| --- | --- |
| COc1ccc(S(=O)(=O)n2ccc3cc(/C=C/C(=O)NO)ccc32)cc1OC | 7.34 |
| O=C(/C=C/c1ccc2c(ccn2S(=O)(=O)c2ccc(F)cc2)c1)NO | 7.23 |
| O=C(/C=C/c1ccc2c(ccn2Cc2ccccc2)c1)NO | 7.39 |
| COc1ccc(S(=O)(=O)n2ccc3cc(/C=C/C(=O)NO)ccc32)cc1 | 8.48 |

Lookup: Name the recorded pIC50 of `O=C(/C=C/c1ccc2c(ccn2S(=O)(=O)c2ccc([N+](=O)[O-])cc2)c1)NO` , assay system Protein deacetylase HDAC6 (Homo sapiens, UniProt Q9UBN7).
Found: 7.74
